# SYSTEM UNDER TEST: melatonin receptor
# ASSAY NOTES: Inhibition of 2-[125I]iodomelatonin binding (forebrain membrane homogenate)
# Set-up: species or system chicken (white leghorn)
# CONDITIONS USED: forebrains of 7-day-old chicken; 80 pM 2-[^125I]iodomelatonin; 90 minutes at 25°C; non-specific binding with 10^-5M melatonin; log-probit analysis; read-out: IC50 (nM), Action of inhibiting 2-[^125I]iodomelatonin binding
I'd appreciate it if you could supply IC50 values for the items below.
Field format: number, assumed nM, no unit text.

molecule `CCCC(=O)NCCC1=CCc2ccc3c(c21)CCO3` , IC50 observed: 0.095

molecule CC(=O)NCCC1CCc2ccc3c(c21)CCO3 (stereo not drawn) , IC50 observed: 0.28

molecule `CC(=O)NCCC1=CCc2ccc3c(c21)CCO3` , IC50 observed: 0.24

molecule CCCC(=O)NCCC1CCc2ccc3c(c21)CCO3 (stereo not drawn) , IC50 observed: 0.12

molecule `CCC(=O)NCCC1=CCc2ccc3c(c21)CCO3` , IC50 observed: 0.1

molecule `CCC(=O)NCC[C@@H]1CCc2ccc3c(c21)CCO3` , IC50 observed: 0.048
